B1: library; numbered along this chain (parent)
chain: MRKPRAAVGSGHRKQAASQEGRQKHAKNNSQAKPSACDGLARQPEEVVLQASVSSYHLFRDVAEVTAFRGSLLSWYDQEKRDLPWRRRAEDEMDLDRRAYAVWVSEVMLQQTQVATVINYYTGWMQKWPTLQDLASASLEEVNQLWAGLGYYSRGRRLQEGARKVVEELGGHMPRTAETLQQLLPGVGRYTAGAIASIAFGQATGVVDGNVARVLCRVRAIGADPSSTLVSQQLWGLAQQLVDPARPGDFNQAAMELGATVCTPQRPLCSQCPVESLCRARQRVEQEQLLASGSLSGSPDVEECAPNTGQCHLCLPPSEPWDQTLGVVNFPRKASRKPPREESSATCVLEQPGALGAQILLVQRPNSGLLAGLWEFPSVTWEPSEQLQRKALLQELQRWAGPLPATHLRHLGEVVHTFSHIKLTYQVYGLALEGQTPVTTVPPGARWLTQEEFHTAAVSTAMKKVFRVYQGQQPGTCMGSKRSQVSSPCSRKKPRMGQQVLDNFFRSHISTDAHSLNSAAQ

Variants of: B1
Protocol notes: 8OG:A repair function score (normalized; synonymous = 0, nonsense = -1) (normalized log-likelihood score); higher = more repair activity (WT-like);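 also: cells sorted at 72 h after reporter transfection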
Assay conditions: with 8OG:A DNA repair reporter (GFP) in HEK-293 MUTYH KO cells
Collected 8OG:A repair function score values appear next to each entry.
In your answer, state the number alone without any accompanying words.

Below, each entry is followed by its recorded 8OG:A repair function score result.
A291M -0.0586
S486F 0.00694
K127M -0.286
L325I -0.054
V104I -0.19

Bench note: what 8OG:A repair function score did S510D show?
-0.0311

Same read-out for P402V ?
-0.0663
